Biological target: T1, GST-KIAA0382 PDZ domain 1 (Canis lupus familiaris (Dog) (Canis familiaris)), A0A8I3
T1 chain: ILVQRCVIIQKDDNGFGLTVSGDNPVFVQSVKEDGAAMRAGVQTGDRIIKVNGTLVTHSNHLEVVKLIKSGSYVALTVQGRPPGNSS
Experiment: G' assay; also: key of the grades not given here
property-name: Classification (A450 class)
One number for each entry, in A450 class.

Answered examples (5):
PIPAGGCTFSGIFPTLTSPL (modifications not checked) [KIA 1481] : 5
QATSRNGHSARQHVVADTEL (modifications not checked) [CD34] : 1
KENDYESISDLQQGRDITRL (modifications not checked) [PAG] : 1
KTMPAAMFRLLTGQETPLYI (modifications not checked) [MINT-2] : 1
AWDDSARAAGGQGLHVTAL (modifications not checked) [LPAP] : 5

Hello, I would appreciate it if you could give Classification for each entry below.
1. LASKSAEEGKQIPDSLSTDL (modifications not checked) [DOCK2]
2. VGTLLLERVIFPSVKIATLV (modifications not checked) [AdenoE4 typ9]
3. ILNSIQVMRAQMNQIQSVEV (modifications not checked) [ephrin B2]
4. TQGFPGPATWRRISSLESEV (modifications not checked) [NMDA Glutamate Receptor 2C (cysteine-free)]
5. RIAYSLLGLKDQVNTVGIPI (modifications not checked) [ephrin A2]
6. VHDAESSDEDGYDWGPATDL (modifications not checked) [zona occludens 3 (ZO-3) PL peptide]
7. KTMPAAMYRLLTAQEQPVYI (modifications not checked) [MINT-1]
8. KDSRPSFVGSSSGHTSTTL (modifications not checked) [CDw128B]

Return:
[1, 1, 2, 1, 1, 2, 1, 2]

Hello, I would appreciate it if you could give Classification for each entry below.
1. ESSGTQSPKRHSGSYLVTSV (modifications not checked) [APC-adenomatous polyposis coli protein]
2. LNETTETQRTLLNGDLQTSI (modifications not checked) [SSTR2 (somatostatin recepor 2)]

Return:
[1, 1]
